Assay: Example 16: interaction potential, Mucinex and Sudafed 12 Hour alone or together, 3-way crossover
Format: in vivo, human
Conditions: human, in vivo, po, 120 mg, Pseudoephedrine Half-life, mean; Treatment B: 120 mg pseudoephedrine HCl alone (Sudafed 12 Hour), overnight fast
Where a name gives a salt, the structure may show the parent alone.
READOUT_NAME: half-life (h)
// return numeric value only (unit: h, not printed)

Q. Look up half-life: CN[C@@H](C)[C@@H](O)c1ccccc1 [Pseudoephedrine, Pseudoephedrine hydrochloride]
A. 6.05

* * *

Assay: clinical
Format: in vivo, human
Settings: human, in vivo, 1200 mg, Guaifenesin AUC0-t
READOUT_NAME: AUC(0-t) (ng·h/mL)
The response must be a number in ng·h/mL with no trailing unit.

Q. Would you mind telling me what AUC(0-t) value was observed for COc1ccccc1OCC(O)CO (stereo not shown) ?
A. 7060
